Form field: pIC50 (one value per entry).
Target or test system: human 17βHSD type 5 (Homo sapiens, UniProt P42330)
Construct: A full-length cDNA encoding human 17βHSD type 5 used in the pharmacological test of the present invention
Sequence (P42330 whole entry): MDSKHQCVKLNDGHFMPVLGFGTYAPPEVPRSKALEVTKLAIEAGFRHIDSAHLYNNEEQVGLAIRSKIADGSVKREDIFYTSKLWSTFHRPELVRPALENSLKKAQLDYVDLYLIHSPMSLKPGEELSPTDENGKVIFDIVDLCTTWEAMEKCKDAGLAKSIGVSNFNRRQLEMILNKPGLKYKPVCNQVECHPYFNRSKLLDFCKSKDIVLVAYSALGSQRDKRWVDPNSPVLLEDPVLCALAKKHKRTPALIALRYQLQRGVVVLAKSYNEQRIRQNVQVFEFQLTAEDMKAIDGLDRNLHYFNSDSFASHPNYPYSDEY
Measurement protocol: Measurement of enzyme activity of human 17βHSD type 5 (testosterone production from androstenedione, DELFIA)
Run conditions: purified enzyme 10 μg/mL, androstenedione 300 nM, NADPH 200 μM, pH 6.0, room temperature, 2 hours
Kindly note that pIC50 refers to -log10 of the concentration in mol/L and answer with the value alone.

Please review the entries below; each comes with its answer.
[
  {
    "Compound": "Cc1ccc2[nH]c(C(=O)N3CCC(CC(C)(C)O)CC3)cc2c1",
    "pIC50": 6.82
  },
  {
    "Compound": "CC(C)(O)CC1CCN(C(=O)c2cc3cc(Cl)ccc3[nH]2)CC1",
    "pIC50": 8.35
  },
  {
    "Compound": "CC(C)(O)CC1CCN(C(=O)c2cc3cc([N+](=O)[O-])ccc3[nH]2)CC1",
    "pIC50": 7.82
  },
  {
    "Compound": "CC(C)(O)CC1CCN(C(=O)c2cc3ccccc3[nH]2)CC1",
    "pIC50": 6.89
  }
]

Consider the compound shown here: CC(O)CC1CCN(C(=O)c2cc3ccccc3[nH]2)CC1 (centres unmarked) What is its recorded pIC50?
7.59
